# Assayed System: PDGFRA (Homo sapiens, UniProt P16234)
# Construct: purchased PV3811
# Sequence (P16234 24-1089): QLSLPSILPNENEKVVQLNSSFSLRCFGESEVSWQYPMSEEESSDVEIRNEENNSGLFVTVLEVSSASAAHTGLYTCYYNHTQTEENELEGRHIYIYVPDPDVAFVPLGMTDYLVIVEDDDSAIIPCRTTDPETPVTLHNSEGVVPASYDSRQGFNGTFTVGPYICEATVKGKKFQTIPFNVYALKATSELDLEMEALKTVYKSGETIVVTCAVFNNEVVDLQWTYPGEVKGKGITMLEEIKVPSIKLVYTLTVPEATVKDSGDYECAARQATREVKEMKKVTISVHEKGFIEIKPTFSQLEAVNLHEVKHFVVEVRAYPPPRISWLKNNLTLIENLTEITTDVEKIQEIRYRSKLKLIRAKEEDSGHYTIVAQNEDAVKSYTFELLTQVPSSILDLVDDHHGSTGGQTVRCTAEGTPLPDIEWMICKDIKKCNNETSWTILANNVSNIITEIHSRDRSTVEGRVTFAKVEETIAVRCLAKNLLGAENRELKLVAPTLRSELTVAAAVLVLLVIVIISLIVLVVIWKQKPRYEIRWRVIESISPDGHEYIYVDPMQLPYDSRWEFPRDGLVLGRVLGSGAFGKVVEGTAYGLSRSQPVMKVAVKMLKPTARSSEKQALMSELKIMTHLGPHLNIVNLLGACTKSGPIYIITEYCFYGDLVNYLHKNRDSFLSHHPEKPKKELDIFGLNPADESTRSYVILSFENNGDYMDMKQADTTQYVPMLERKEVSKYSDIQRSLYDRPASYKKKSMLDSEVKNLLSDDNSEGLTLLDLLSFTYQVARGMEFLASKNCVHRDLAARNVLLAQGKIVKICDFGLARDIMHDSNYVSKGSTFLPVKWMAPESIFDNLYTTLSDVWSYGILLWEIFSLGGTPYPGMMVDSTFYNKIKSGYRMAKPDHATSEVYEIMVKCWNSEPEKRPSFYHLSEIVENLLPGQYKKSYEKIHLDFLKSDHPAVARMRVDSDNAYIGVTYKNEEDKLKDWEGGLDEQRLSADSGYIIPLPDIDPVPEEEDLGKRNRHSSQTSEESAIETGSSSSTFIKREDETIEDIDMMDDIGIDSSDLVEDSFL
# Experiment Summary: Assay for PDGFRa (Omnia)
# Format: biochemical
# Particulars: 30 min pre-incubation, [ATP]=60 μM; read-out: IC50_APP PDGFRA
Endpoint Name: pIC50
Scale explanation: pIC50 corresponds to minus log10 of a concentration expressed in moles per litre.

CNC(=O)c1cc(Oc2ccc(NC(=O)Nc3ccc(NC(=O)CCl)c(C(F)(F)F)c3)cc2)ccn1 [XVIII-13] : 9.29

// next item, pIC50 requested
Query block: Report measured pIC50; entry is CNC(=O)c1cc(Oc2ccc(NC(=O)Nc3ccc(NC(=O)C(C)Cl)c(C(F)(F)F)c3)cc2)ccn1 (centres unmarked) [XVIII-14]
Result block: 8.81

* * *

# Assayed System: PDGFRA (Homo sapiens)
# Construct: purchased PV3811
# Experiment Summary: Assay for PDGFRa (Omnia)
# Format: biochemical
# Particulars: reversible reference compounds; read-out: IC50 PDGFRA
Endpoint Name: IC50 (nM)
Value expressed in nM; do not type the unit.

Query block: Report measured IC50; entry is CCC(=O)Nc1ccc(NC(=O)Nc2ccc(Oc3ccnc(C(=O)NC)c3)cc2)cc1C(F)(F)F [Reversible Reference Compound 3, reference compound]
Result block: 4.15

* * *

# Assayed System: CKIT D816V (Homo sapiens, UniProt P10721, D816V)
# Sequence (P10721 26-976 D816V): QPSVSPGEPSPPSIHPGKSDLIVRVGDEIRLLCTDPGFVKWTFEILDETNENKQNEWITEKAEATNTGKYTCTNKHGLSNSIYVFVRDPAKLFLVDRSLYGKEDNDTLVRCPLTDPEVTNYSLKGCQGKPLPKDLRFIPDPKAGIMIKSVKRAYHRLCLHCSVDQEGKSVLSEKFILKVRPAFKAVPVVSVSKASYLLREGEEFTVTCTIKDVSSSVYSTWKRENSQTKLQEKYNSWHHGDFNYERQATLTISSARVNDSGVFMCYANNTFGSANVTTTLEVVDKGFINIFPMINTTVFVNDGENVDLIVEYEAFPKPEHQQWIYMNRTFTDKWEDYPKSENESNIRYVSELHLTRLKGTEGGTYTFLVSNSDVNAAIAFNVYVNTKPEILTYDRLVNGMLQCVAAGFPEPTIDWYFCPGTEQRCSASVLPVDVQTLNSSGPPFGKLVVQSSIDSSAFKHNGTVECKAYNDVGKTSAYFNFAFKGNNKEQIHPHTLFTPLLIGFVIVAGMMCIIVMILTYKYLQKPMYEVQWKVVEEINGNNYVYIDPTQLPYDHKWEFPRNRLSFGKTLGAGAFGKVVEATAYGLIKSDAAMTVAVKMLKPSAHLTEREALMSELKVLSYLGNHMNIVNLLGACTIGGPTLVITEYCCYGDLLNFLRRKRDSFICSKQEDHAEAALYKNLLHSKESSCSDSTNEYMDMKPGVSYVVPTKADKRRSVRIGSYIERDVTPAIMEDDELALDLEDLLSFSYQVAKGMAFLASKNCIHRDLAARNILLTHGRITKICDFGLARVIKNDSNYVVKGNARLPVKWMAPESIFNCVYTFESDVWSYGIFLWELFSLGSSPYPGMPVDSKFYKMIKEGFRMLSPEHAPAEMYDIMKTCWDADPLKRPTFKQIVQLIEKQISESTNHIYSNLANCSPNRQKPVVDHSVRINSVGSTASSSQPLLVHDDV
# Experiment Summary: c-Kit mutant Omnia kinase assay
# Type: biochemical
# Particulars: read-out: IC50_APP CKIT D816V
Endpoint Name: pIC50
Scale explanation: pIC50 corresponds to minus log10 of a concentration expressed in moles per litre.

CNC(=O)c1cc(Oc2ccc(NC(=O)Nc3ccc(NC(=O)/C=C/CN(C)C)c(C(F)(F)F)c3)cc2)ccn1 : 8.60

Query block: Report measured pIC50; entry is `C=CC(=O)Nc1ccc(NC(=O)Nc2ccc(Oc3ccnc(C(=O)NC)c3)cc2)cc1C(F)(F)F`
Result block: 8.47

Query block: Report measured pIC50; entry is `C=CC(=O)Nc1ccc(Sc2nc(Nc3cc(C)n[nH]3)cc(N3CCN(C)CC3)n2)cc1`
Result block: 6.90

* * *

# Assayed System: BTK (Homo sapiens)
# Sequence (Q06187 whole entry): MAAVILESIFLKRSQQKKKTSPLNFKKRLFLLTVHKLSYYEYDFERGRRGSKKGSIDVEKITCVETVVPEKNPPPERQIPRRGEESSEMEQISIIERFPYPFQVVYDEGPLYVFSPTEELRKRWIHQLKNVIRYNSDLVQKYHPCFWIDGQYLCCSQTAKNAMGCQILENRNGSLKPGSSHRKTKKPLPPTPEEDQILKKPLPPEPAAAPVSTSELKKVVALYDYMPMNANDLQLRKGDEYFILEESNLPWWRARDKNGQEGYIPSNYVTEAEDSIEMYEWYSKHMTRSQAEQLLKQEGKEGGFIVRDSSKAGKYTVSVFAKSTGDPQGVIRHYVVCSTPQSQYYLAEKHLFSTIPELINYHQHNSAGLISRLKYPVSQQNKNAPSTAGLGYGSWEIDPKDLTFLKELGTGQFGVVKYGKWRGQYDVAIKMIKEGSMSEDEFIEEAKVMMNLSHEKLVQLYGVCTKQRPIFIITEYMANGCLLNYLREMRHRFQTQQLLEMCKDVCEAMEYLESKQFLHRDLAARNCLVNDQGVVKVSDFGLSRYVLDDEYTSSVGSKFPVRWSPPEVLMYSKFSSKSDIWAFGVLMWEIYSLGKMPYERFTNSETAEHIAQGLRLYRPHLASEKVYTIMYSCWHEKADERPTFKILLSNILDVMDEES
# Experiment Summary: Omnia assay for potency assessment against BTK
# Assay type: biochemical
# Particulars: reversible reference compounds; read-out: IC50 BTK
Endpoint Name: IC50
Number first, unit second: that is the form wanted.

CCC(=O)Nc1ccc(Sc2nc(Nc3ncc(C#N)s3)cc(N3CCN(C)CC3)n2)cc1 [Reversible Reference Compound 1, reference compound] : 1640 nM

// next item, IC50 requested
Query block: Provide measured IC50 on BTK (Homo sapiens) for CCC(=O)N1CCC(Sc2nc(Nc3ncc(C#N)s3)cc(N3CCN(C)CC3)n2)CC1 [Reversible Reference Compound 2, reference compound] please.
Result block: 184 nM

* * *

# IC50 per entry
# Assayed System: BTK (Homo sapiens)
# Experiment Summary: Omnia assay for potency assessment against BTK
# Assay type: biochemical
# Particulars: 30 min pre-incubation; read-out: IC50_APP BTK
Value expressed in nM; do not type the unit.

C=CC(=O)NCCSc1nc(Nc2ncc(C#N)s2)cc(N2CCN(C)CC2)n1 [II-4] : 5080
CC#CC(=O)N1CCC(Sc2nc(Nc3ncc(C#N)s3)cc(N3CCN(C)CC3)n2)CC1 [II-3] : 459
C=CC(=O)N1CCC(Sc2nc(Nc3ncc(C#N)s3)cc(N3CCN(C)CC3)n2)CC1 [II-2] : 0.572

Query block: Report measured IC50; entry is C=CC(=O)Nc1ccc(Sc2nc(Nc3ncc(C#N)s3)cc(N3CCN(C)CC3)n2)cc1 [II-1]
Result block: 6170

Query block: Report measured IC50; entry is CN(C)C/C=C/C(=O)N1CCC(Sc2nc(Nc3ncc(C#N)s3)cc(N3CCN(C)CC3)n2)CC1 [II-5]
Result block: 106

* * *

# pIC50 per entry
# Assayed System: KDR (Homo sapiens, UniProt P35968)
# Sequence (P35968 20-1356): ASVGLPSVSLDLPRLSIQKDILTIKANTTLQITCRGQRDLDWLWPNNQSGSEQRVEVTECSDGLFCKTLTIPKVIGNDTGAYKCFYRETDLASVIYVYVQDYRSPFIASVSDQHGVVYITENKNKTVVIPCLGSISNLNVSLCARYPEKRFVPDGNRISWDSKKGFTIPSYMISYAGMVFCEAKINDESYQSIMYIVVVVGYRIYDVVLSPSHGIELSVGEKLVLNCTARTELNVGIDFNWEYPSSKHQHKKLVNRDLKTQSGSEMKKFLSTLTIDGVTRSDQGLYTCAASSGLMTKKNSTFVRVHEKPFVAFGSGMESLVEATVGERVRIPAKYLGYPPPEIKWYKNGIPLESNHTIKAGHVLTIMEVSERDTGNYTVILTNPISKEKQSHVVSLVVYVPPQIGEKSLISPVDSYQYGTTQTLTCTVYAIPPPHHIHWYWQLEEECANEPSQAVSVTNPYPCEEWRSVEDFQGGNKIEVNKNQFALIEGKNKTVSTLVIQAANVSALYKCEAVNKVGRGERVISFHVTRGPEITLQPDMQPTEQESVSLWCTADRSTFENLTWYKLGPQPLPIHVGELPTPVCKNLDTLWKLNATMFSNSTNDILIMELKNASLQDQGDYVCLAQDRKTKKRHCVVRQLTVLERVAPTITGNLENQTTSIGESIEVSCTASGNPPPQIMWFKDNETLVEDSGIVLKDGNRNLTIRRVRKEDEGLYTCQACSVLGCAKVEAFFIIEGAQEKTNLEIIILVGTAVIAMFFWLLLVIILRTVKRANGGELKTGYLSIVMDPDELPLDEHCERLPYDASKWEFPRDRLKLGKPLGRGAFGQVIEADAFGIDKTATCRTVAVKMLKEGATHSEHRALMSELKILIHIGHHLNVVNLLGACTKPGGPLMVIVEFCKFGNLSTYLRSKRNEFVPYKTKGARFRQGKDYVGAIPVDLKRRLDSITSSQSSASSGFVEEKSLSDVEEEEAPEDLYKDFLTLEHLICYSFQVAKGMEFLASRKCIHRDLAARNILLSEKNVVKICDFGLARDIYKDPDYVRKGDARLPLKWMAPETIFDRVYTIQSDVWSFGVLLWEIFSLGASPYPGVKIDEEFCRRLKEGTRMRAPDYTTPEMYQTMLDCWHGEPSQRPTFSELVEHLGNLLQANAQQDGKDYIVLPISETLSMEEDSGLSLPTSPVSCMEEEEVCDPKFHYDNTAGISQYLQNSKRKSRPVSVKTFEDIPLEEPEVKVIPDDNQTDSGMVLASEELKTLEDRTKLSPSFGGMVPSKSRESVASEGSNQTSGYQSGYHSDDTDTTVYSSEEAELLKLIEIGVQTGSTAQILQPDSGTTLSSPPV
# Experiment Summary: KDR Omnia continuous-read kinase assay
# Assay type: biochemical
# Design: purchased Invitrogen or BPS Bioscience PV3660 or 40301
# Particulars: 30 min pre-incubation; read-out: IC50_APP KDR
Scale explanation: pIC50 corresponds to minus log10 of a concentration expressed in moles per litre.

Query block: Report measured pIC50; entry is `C=CC(=O)Nc1ccc(Sc2nc(Nc3cc(C)n[nH]3)cc(N3CCN(C)CC3)n2)cc1`
Result block: 7.82

Query block: Report measured pIC50; entry is `C=CC(=O)Nc1ccc(NC(=O)Nc2ccc(Oc3ccnc(C(=O)NC)c3)cc2)cc1C(F)(F)F`
Result block: 7.57

Query block: Report measured pIC50; entry is `C=CC(=O)N(C)c1ccc(NC(=O)Nc2ccc(Oc3ccnc(C(=O)NC)c3)cc2)cc1`
Result block: 5.87

Query block: Report measured pIC50; entry is `CC#CC(=O)N1CCC(Sc2nc(Nc3ncc(C#N)s3)cc(N3CCN(C)CC3)n2)CC1`
Result block: 6.54

Query block: Report measured pIC50; entry is CNC(=O)c1cc(Oc2ccc(NC(=O)Nc3ccc(NC(=O)C(C)Cl)c(C(F)(F)F)c3)cc2)ccn1 (stereo not drawn)
Result block: 8.16

Query block: Report measured pIC50; entry is `C=CC(=O)N1CCC(Sc2nc(Nc3ncc(C#N)s3)cc(N3CCN(C)CC3)n2)CC1`
Result block: 7.29

* * *

# Assayed System: KDR (Homo sapiens, UniProt P35968)
# Experiment Summary: KDR Omnia continuous-read kinase assay
# Type: biochemical
# Parameters: purchased Invitrogen or BPS Bioscience PV3660 or 40301
# Particulars: 30 min pre-incubation; read-out: IC50_APP KDR
# Experimental: A. KDR and FLT-3 Omnia Assay for Potency Assessment: The protocol below describes a continuous-read kinase assay to measure inherent potency of Avila Therapeutics' compounds against active KDR and FLT-3 enzymes. The assay was performed substantially as described by the vendor (Invitrogen, Carlsbad, Calif.; http://www.invitrogen.com/content.cfm?pageid=11338.) […]
Endpoint Name: IC50 (nM)
Value expressed in nM; do not type the unit.

Past entries and their recorded results:
C=CC(=O)NCCSc1nc(Nc2ncc(C#N)s2)cc(N2CCN(C)CC2)n1 : 111
C=CC(=O)Nc1ccc(Sc2nc(Nc3ncc(C#N)s3)cc(N3CCN(C)CC3)n2)cc1 : 39.3
CNC(=O)c1cc(Oc2ccc(NC(=O)Nc3ccc(NC(=O)/C=C/CN(C)C)c(C(F)(F)F)c3)cc2)ccn1 : 148
CN(C)C/C=C/C(=O)N1CCC(Sc2nc(Nc3ncc(C#N)s3)cc(N3CCN(C)CC3)n2)CC1 : 39.7
C=CC(=O)Nc1cc(NC(=O)Nc2ccc(Oc3ccnc(C(=O)NC)c3)cc2)ccc1Cl : 462

// next item, IC50 requested
Query block: Report measured IC50; entry is `CNC(=O)c1cc(Oc2ccc(NC(=O)Nc3ccc(NC(=O)CCl)c(C(F)(F)F)c3)cc2)ccn1`
Result block: 0.95

Measured values drawn from patent US10662195B2 for this set.
